// provenance: the supplement of paper PMC9170038

Test system: MS2 coat protein
assay method text: apparent KD of MS2 coat protein; designed switch direction (-1 OFF switch, 1 ON switch): 1; higher = weaker reporter binding
recorded conditions: Eterna round: R95; input ligand: none
measured parameter: apparent KD of MS2 coat protein (nM)
Express your answer in nM, writing the number without its unit.

Solved cases below.
# sequence input, apparent KD of MS2 coat protein / nM
data = [
    ("GGGCCAGCUUGUGCUGGGCCUUCGCAUGCACAUGAGGAUCACCCAUGUCGUGUACAUGCUUGGUGCCCGUCUUUAAA [Photon Torp-13] (puzzle: Sensor for hsa-mir-208a)", 103),
    ("AGUCCAGCCUGAGCUGGACAAAAGCAUGUACAUGAGGAUCACCCAUGUUCAUGUACAAGCUUUUUGCUCGUUUUAAA [Zipper 52 - 8] (puzzle: Sensor for hsa-mir-208a)", 546),
]

Next sequence, please.
Prompt line: Can you look up the measured apparent KD of MS2 coat protein of GGUGUACAUGAGGAUCACCCAUGUCGACCGCUCACAGGAUAUUUAUUACAAACUGGUAGCGGAGAAGGGUGAGGGC [Maarraar] (puzzle: Same State 1) for me?
Response line: 37.6
